- test-target: muscarinic receptors
- protocol-summary: 3H-oxotremorine-M binding assay
- settings: 3 nM 3H-oxotremorine-M, rat cerebral cortical membranes, 15 min 25° C.; read-out: Inhibition of 3H-Oxo
Structures can show the parent of a compound that is named as a salt.
Can you tell me IC50 for the items I'm about to list?
Please reply with the bare figure in nM and do not write the unit itself.

[ask] Given O=C(O)/C=C/C(=O)O.c1csc(CCCSc2nsnc2C2CN3CCC2CC3)c1 (centres unmarked) [Compound 104, fumarate] , state its recorded IC50.
[reply] 2.6

[ask] Given CCOc1nsnc1[C@H]1CN2CCC[C@H]1C2 (relative stereo) , state its recorded IC50.
[reply] 1.2

[ask] Given CCCCCOc1nsnc1[C@H]1CN2CCC[C@H]1C2 (relative stereo) , state its recorded IC50.
[reply] 1

[ask] Given `CC(C)CCCSc1nsnc1[C@@H]1CN2CCC[C@@H]1C2` , state its recorded IC50.
[reply] 10

[ask] Given CCCCOc1nsnc1C1CN2CCC1CC2.O=C(O)C(=O)O (centres unmarked) [Compound 46, oxalate] , state its recorded IC50.
[reply] 1.6

[ask] Given CCCCSc1nsnc1C1CN2CCC1CC2.O=C(O)/C=C/C(=O)O (centres unmarked) [Compound 13, fumarate] , state its recorded IC50.
[reply] 1.9

[ask] Given Cn1nnnc1SCCCCSc1nsnc1C1CN2CCC1CC2 (centres unmarked) [Compound 106, oxalate] , state its recorded IC50.
[reply] 2.8

[ask] Given CC(C)CCSc1nsnc1[C@H]1CN2CCC[C@H]1C2 (relative stereo) , state its recorded IC50.
[reply] 2.7
